pIC50: −log10 of the molar value.
# merged literature set: pIC50 with Kynurenine 3-monooxygenase (Rattus norvegicus)
# Sequence (O88867 whole entry): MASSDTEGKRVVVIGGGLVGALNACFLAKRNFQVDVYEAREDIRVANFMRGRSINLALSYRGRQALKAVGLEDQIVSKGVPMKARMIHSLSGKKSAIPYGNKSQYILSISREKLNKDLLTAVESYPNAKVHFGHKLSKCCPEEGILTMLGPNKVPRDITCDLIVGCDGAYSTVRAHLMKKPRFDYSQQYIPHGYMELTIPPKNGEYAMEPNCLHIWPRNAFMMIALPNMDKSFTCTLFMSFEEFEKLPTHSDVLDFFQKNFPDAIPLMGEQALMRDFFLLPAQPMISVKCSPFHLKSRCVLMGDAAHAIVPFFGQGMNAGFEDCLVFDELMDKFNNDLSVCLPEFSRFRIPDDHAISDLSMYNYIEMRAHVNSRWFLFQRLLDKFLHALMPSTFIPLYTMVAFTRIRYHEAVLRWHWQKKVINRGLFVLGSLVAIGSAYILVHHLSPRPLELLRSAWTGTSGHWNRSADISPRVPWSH
# pIC50 binned as lo: < 6; med: ≥ 6 and < 7; hi: ≥ 7

The following compounds have reported results that may help.
- Cc1ccc(S(=O)(=O)Nc2nc(-c3ccc(Cl)cc3)cs2)cc1: hi
- COc1ccc(S(=O)(=O)Nc2nc(-c3cc(C(F)(F)F)ccc3F)cs2)cc1OC: hi
- O=[N+]([O-])c1cccc(-c2csc(NS(=O)(=O)c3ccccc3)n2)c1: med
- N[C@@H](CC(=O)c1cccc([N+](=O)[O-])c1)C(=O)O: med
- COc1ccc(-c2csc(NS(=O)(=O)c3ccc(C)cc3)n2)cc1: med
- COc1ccc(S(=O)(=O)Nc2nc(-c3cccc([N+](=O)[O-])c3)cs2)cc1: hi
- O=C(O)CCC(=O)c1cccc([N+](=O)[O-])c1: lo

Would you kindly look at the next entry?
Which of the defined bands does the recorded pIC50 of NC(CC(=O)c1ccc([N+](=O)[O-])cc1)C(=O)O (configuration not stated) sit within? lo
